Cited source for all entries: paper PMC6503841

Target: T1, AF9 YEATS domain, AF9 (1–138) (human, UniProt P42568 1-138)
T1 sequence (looked up): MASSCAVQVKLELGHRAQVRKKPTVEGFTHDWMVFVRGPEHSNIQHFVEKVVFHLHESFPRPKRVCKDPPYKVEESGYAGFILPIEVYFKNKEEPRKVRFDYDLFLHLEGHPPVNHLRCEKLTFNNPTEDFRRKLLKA
Assay: cross-linking
Where no end group is shown, it is not given here. The star is where a group is joined. Oxazole(5-CO) = O=C(c1cnco1)*; Crotonyl(E) = C/C=C/C(=O)*; 2Furoyl = O=C(c1ccco1)*; Cbz = O=C(OCc1ccccc1)*
measurement-label: IC50 (nM)

a: Cbz-QTARK(2Furoyl)
b: KQTARK(Crotonyl(E))STGG (peptide, UniProt P68431 5-14, looked up) [H3K9cr peptide (histone H3 residues 4–13, Lys 9 crotonylated)]
Query :: Which of the two gives a bigger number for IC50: a or b ? Write down the label of the entry you select.
Result :: b

1: QTARK(2Furoyl) [XL-07h (pentapeptide with the QTARK sequence)]
2: Cbz-QTARK(Oxazole(5-CO)) [XL-13a (XL-07i with the 2-furancarbonyl group replaced by a 5-oxazolecarbonyl group)]
Query :: Which of the two gives a bigger number for IC50: 1 or 2 ? Write down the label of the entry you select.
Result :: 1
(1: 4500 nM, 2: 240 nM)
